Every entry's value here was drawn from patent US20250221966A1.

# ASSAY_SYSTEM: human RXFP1 (Homo sapiens)
# Construct: expressed in transfected cells
# Sequence (Q9HBX9 1-757): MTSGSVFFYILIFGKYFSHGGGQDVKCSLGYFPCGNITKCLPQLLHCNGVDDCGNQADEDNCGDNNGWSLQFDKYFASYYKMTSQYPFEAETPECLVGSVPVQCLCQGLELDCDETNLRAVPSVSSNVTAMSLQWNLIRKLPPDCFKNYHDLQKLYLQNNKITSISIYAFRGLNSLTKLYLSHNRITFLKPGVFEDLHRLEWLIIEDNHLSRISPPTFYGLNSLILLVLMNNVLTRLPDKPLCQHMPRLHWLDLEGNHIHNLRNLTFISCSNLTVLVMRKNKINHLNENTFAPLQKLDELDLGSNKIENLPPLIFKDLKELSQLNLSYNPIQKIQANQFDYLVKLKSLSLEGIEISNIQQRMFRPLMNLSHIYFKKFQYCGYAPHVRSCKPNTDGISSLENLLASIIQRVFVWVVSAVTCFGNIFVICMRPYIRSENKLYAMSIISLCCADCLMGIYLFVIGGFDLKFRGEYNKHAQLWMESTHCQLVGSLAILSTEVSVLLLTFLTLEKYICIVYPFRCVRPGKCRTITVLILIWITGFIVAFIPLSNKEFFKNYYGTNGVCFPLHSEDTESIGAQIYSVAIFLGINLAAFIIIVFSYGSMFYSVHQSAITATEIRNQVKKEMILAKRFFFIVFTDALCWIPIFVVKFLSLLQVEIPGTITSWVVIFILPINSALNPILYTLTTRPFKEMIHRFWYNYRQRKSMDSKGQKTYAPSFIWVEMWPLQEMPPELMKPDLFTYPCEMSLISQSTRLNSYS
# EXPERIMENTAL_PROTOCOL: RXFP1 cAMP assay (hRXFP1 HEK293 cAMP assay, HTRF)
# Type: cell-based
# REPORTED_CONDITIONS: HEK293 cells stably expressing human RXFP1, 30 min at room temperature, read-out: cAMP hRXFP1 HEK293 Assay EC50
pEC50: −log10 of the molar value.
MEASURED_ATTRIBUTE: pEC50

COc1ccc(-c2cc(C(C)CC(=O)O)ccc2F)cc1C(=O)N[C@H]1[C@@H](C(=O)Nc2ccc(F)c(C(F)(F)F)c2)[C@H]2CC[C@@H]1/C2=C\C1CC1 (stereo partly drawn) [compound 887]; 8.26

A. COc1ccc(C2=NOC3COCC23)cc1C(=O)N[C@H]1[C@@H](C(=O)N[C@H](C)C(C)(C)C)[C@H]2CC[C@@H]1/C2=C\C1CC1 (stereo partly drawn) [compound 485]
B. COc1ccc(C2CCN(C(=O)C(C)(C)O)C2)cc1C(=O)N[C@H]1[C@@H](C(=O)Nc2ccc(F)c(C(F)(F)F)c2)[C@H]2CC[C@@H]1/C2=C\C1CC1 (single isomer, unassigned) [Example 449]
Task: Which value of pEC50 is smaller, the one for A or the one for B ? Write the label of whichever entry you select.
Result: A
